biological target: Apelin receptor (Homo sapiens) (UniProt P35414); assay: potency against CXCR6 with APJ panel – cell-based, beta-arrestin, DiscoveRx, uHTS hits, dose response (AID 624129); conditions: CXCR6 beta-arrestin (DiscoveRx) antagonist cell assay, APJ, run 2, dose range 1
pIC50: −log10 of the molar value.
Measured pIC50 of individual entries

Compound: COc1ccc(OC)c(/C=C/c2ccc3cccc(O)c3n2)c1
Operator symbol: =
pIC50: 4.99
//
Compound: C=C1C(=O)[C@]23C[C@H]1CCC2[C@@]1(C)C(C[C@@H]3O)[C@](C)(C(=O)OC)CC[C@@H]1OC(C)=O (stereo not given in full)
Operator symbol: =
pIC50: 5.06
//
Compound: O=C1C(=C(c2ccccc2)N2CCOCC2)Cc2ccccc21
Operator symbol: =
pIC50: 4.93
//
Compound: Cn1c(O)c(C2=NNC(c3ccc(Cl)cc3)C2)c(=O)n(C)c1=O (stereo not given)
Operator symbol: =
pIC50: 4.70
//
Compound: O=[N+]([O-])c1c(Nc2cccc(O)c2)cc(Cl)c2nonc12
Operator symbol: =
pIC50: 4.77
//
Compound: Cn1c(=O)c([N+](=O)[O-])c(Cl)c2ccccc21
Operator symbol: =
pIC50: 4.37
//
Compound: CC(=O)Nc1ccc(NC(=O)c2nc(S(=O)(=O)Cc3cccc(C)c3)ncc2Cl)cc1
Operator symbol: =
pIC50: 4.97
//
Compound: O=C(/C=C/c1cccc([N+](=O)[O-])c1)c1ccc([N+](=O)[O-])o1
Operator symbol: <
pIC50: 4.10
//
Compound: COc1ccc(CN2C(=O)C(Cc3ccccc3)Nc3ncnc(N4CCN(c5ccccc5)CC4)c32)cc1 (stereo not given)
Operator symbol: =
pIC50: 5.00
//
Compound: O=[N+]([O-])c1cc(Cc2ccccc2)cc(C=Nc2ccc(N3CCOCC3)cc2)c1O
Operator symbol: =
pIC50: 4.47

----------
target: Apelin receptor (Homo sapiens) (UniProt P35414); experiment: potency against CXCR6 with APJ panel – cell-based, beta-arrestin, DiscoveRx, uHTS hits, dose response (AID 624129); settings: CXCR6 beta-arrestin (DiscoveRx) antagonist cell assay, APJ, run 2, dose range 1
pIC50: −log10 of the molar value.

Compound: N#CC(C#N)=C1C=CC=CN1/C(=C\c1ccco1)C(=O)c1ccccc1
Operator symbol: =
pIC50: 5.49
--
Compound: COc1cc(/C=C/c2ccc3c(Br)cc(Br)c(O)c3n2)ccc1O
Operator symbol: =
pIC50: 4.73
--
Compound: O=C(CSc1cccc2cccnc12)N1CCCC1
Operator symbol: =
pIC50: 5.21
--
Compound: CS(=O)(=O)c1sc(C#N)c2c1C(=O)CC(c1ccccc1)C2 (stereo unspecified)
Operator symbol: <
pIC50: 4.10
--
Compound: S=C(NCCCN1CCOCC1)Nc1ccc(Cl)cc1
Operator symbol: =
pIC50: 4.80
--
Compound: CCOc1ccc(NCC(=O)c2ccc(C)cc2)cc1
Operator symbol: =
pIC50: 4.55

----------
target: Beta-galactosidase (Escherichia coli) (UniProt Q8VNN2); experiment: potency against CXCR6 with APJ panel – cell-based, beta-arrestin, DiscoveRx, uHTS hits, dose response (AID 624129); conditions: CXCR6 beta-arrestin (DiscoveRx) antagonist cell assay, b-galactosidase, dose range 1, mean IC50 across replicates
Sequence (Q8VNN2 whole entry, looked up): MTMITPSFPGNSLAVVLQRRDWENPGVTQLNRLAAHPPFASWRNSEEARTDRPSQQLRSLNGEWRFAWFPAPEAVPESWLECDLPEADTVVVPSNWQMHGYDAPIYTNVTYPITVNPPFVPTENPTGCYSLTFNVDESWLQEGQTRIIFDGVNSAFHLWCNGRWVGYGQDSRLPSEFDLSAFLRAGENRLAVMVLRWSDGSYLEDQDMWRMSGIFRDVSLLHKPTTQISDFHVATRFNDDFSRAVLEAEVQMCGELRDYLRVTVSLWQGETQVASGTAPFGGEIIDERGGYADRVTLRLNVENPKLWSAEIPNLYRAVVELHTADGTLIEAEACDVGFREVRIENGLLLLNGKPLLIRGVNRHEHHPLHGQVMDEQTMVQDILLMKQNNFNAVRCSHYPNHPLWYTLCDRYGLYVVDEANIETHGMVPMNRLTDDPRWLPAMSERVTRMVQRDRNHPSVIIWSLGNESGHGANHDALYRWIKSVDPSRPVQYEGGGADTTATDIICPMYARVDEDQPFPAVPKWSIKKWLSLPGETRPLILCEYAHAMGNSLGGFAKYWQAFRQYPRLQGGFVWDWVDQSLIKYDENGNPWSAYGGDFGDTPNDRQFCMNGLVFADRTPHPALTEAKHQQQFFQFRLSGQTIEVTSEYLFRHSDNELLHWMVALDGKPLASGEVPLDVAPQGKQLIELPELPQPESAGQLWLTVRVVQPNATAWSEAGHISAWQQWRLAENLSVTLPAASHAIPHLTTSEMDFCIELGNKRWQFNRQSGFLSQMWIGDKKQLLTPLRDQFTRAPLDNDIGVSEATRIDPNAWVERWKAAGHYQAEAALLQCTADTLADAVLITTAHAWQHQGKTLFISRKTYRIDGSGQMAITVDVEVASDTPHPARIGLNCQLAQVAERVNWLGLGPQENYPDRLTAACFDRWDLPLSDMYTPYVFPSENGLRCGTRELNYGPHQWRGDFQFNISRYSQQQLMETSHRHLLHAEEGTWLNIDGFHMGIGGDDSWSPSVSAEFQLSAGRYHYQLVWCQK

Compound: O=S(=O)(Nc1cccc2cccnc12)c1ccccc1
IC50: > 80 µM
//
Compound: C/C(=N\NC(=O)Cc1ccc(Cl)cc1)c1ccccn1
IC50: > 80 µM
//
Compound: CCCCCCCCn1sccc1=O
IC50: > 80 µM
//
Compound: Cc1cc(C)c2ccc(N)nc2c1O
IC50: > 80 µM
//
Compound: CN(CCO)c1cc(Sc2nc3ccccc3s2)c2nonc2c1[N+](=O)[O-]
IC50: 25.6 µM
//
Compound: COc1cc2c(cc1OC)C1(CCCC1)CNC2c1cccc([N+](=O)[O-])c1 (configuration not stated)
IC50: > 80 µM
//
Compound: Cn1c(O)c(C2=NNC(c3ccc(Cl)cc3)C2)c(=O)n(C)c1=O (configuration not stated)
IC50: 26.3 µM

----------
molecular target: C-X-C chemokine receptor type 6 (Homo sapiens) (UniProt O00574); assay: potency against CXCR6 with APJ panel – cell-based, beta-arrestin, DiscoveRx, uHTS hits, dose response (AID 624129); details: CXCR6 beta-arrestin (DiscoveRx) antagonist cell assay, CXCR6, run 1, dose range 2
Sequence (O00574 whole entry, looked up): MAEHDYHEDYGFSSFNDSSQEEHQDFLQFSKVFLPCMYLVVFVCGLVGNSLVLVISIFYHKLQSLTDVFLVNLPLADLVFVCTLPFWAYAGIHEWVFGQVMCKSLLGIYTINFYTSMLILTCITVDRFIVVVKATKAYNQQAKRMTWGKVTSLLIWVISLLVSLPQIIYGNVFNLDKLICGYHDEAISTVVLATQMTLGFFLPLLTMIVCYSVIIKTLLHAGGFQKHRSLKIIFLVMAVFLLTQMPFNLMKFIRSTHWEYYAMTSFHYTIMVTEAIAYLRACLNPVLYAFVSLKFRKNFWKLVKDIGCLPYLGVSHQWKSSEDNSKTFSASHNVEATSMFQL
Measurement type: IC50 (µM)

Molecule: O=[N+]([O-])c1cc2oc3c(c2c(C=NCc2ccccc2)c1O)CCCC3
Test result: 4.04
--
Molecule: COc1ccc(-c2c(C(=O)c3ccccc3)[nH]c(N)c2C(=O)c2ccccc2)cc1OC
Test result: 33.1
--
Molecule: CC(=O)OC1C2(CC3N4C(=O)C5(CO)SSC4(CC31O)C(=O)N5C)OC(C)C(C)(C)C2=O (stereo not given)
Test result: 0.497
--
Molecule: COC(=O)c1ccc(/C=C(\C#N)C(=O)NC(C)c2ccccc2)cc1 (stereo not given)
Test result: 13.6
--
Molecule: Cc1ccc(OCCN2C(=O)c3ccccc3C2=O)c([N+](=O)[O-])c1
Test result: 5.94
--
Molecule: C=CS(=O)(=O)c1ccc(Oc2ccc(S(=O)(=O)C=C)cc2)cc1
Test result: 8.79
--
Molecule: CCC(C)c1ccc(O)c(NC(=S)NC(=O)c2cccs2)c1 (stereo not given)
Test result: 15.4
--
Molecule: C/C(=N\NC(=O)C(C)Oc1ccc([N+](=O)[O-])cc1)c1ccccn1 (stereo not given)
Test result: 2.75
--
Molecule: CS(=O)(=O)c1ncc(Cl)c(C(=O)Nc2ccc(OC(F)F)cc2)n1
Test result: 12.4
--
Molecule: Cc1cccc(CS(=O)(=O)c2ncc(Cl)c(C(=O)NCc3ccccc3)n2)c1
Test result: 11.5

----------
target: C-X-C chemokine receptor type 6 (Homo sapiens); experiment: potency against CXCR6 with APJ panel – cell-based, beta-arrestin, DiscoveRx, uHTS hits, dose response (AID 624129); details: CXCR6 beta-arrestin (DiscoveRx) antagonist cell assay, CXCR6, dose range 1, mean IC50 across replicates
pIC50: −log10 of the molar value.
The following compounds are listed with their measured pIC50 values.

Compound: CCCSc1cc(NCCOC(=O)CCC)c([N+](=O)[O-])c2nonc12
pIC50: 4.75
//
Compound: CCc1ccc(NC(=O)c2nc(S(=O)(=O)Cc3ccccc3)ncc2Cl)cc1
pIC50: 4.92
//
Compound: Cn1nc([N+](=O)[O-])nc1Sc1cccc2cccnc12
pIC50: 4.90
//
Compound: CCC1CCCCN1S(=O)(=O)c1ccc(NC(=O)c2nc(S(C)(=O)=O)ncc2Cl)cc1 (stereo not given)
pIC50: 5.05
//
Compound: COc1cccc2sc(N(CCCN(C)C)C(=O)CCS(=O)(=O)c3ccccc3)nc12
pIC50: 4.83

----------
target: C-X-C chemokine receptor type 6 (Homo sapiens) (UniProt O00574); test: potency against CXCR6 with APJ panel – cell-based, beta-arrestin, DiscoveRx, uHTS hits, dose response (AID 624129); details: CXCR6 beta-arrestin (DiscoveRx) antagonist cell assay, CXCR6, dose range 1
Calls of active or inactive are those of the source. How the calls were made is not given here.
Outcome codes: active, inactive

Molecule: C=CCn1nc([N+](=O)[O-])nc1Sc1cccc2cccnc12
Qualitative label: inactive

Molecule: O=C1N[C@H](Cc2ccccc2)COC(=O)[C@H](Cc2ccc(F)cc2)CC/C=C/C[C@H]1CC(=O)N(CCO)Cc1ccccc1
Qualitative label: active

Molecule: CC(C)c1ccc(O)c(NC(=S)NC(=O)c2cccnc2)c1
Qualitative label: inactive

Molecule: COc1cc(/C=C/c2ccc3cccc(O)c3n2)cc(OC)c1OC
Qualitative label: active

Molecule: CCCCOc1ccc(C(=O)NNC(=S)NC(=O)CC)cc1
Qualitative label: active

Molecule: CN(CCO)c1cc(Sc2nc3ccccc3s2)c2nonc2c1[N+](=O)[O-]
Qualitative label: active

Molecule: CC(C)(C)c1ccc(CN2N=Nc3ccccc3S2(=O)=O)cc1
Qualitative label: inactive

Molecule: COC(=O)C1=C(c2ccc(-c3ccccc3)c(F)c2)C[C@@H]2CC[C@H]1N2C(=O)N1CCC(C)CC1
Qualitative label: inactive

Molecule: O=C(C#Cc1ccccc1)c1ccco1
Qualitative label: active

Molecule: O=C(CN1CCN(S(=O)(=O)c2ccc(Br)cc2)CC1)Nc1ccc2c(c1)OCO2
Qualitative label: inactive

Molecule: CN(C)c1nc(=NCc2ccco2)ss1
Qualitative label: inactive

Molecule: Cc1ccc(OCCN2C(=O)c3ccccc3C2=O)c([N+](=O)[O-])c1
Qualitative label: active

Molecule: S=C(NCCCN1CCOCC1)Nc1ccc(Cl)cc1
Qualitative label: inactive

Molecule: O=C(CSc1cccc2cccnc12)N1CCCC1
Qualitative label: active

Molecule: CC(Oc1ccc(Br)cc1)C(=O)Nc1nc(-c2ccccn2)cs1 (centres undefined)
Qualitative label: active

Molecule: CN(C)C(=O)CSc1cccc2cccnc12
Qualitative label: inactive

Molecule: O=C(Nc1nc2c(F)cc(F)cc2s1)c1ccccn1
Qualitative label: active

Molecule: C/C(=N\NC(=O)C(C)Oc1ccc([N+](=O)[O-])cc1)c1ccccn1 (centres undefined)
Qualitative label: active

Molecule: O=C1C=CC(=O)N1Cc1ccccc1
Qualitative label: active

Molecule: COc1ccc(-c2csc(Cc3nc(O)cs3)n2)cc1
Qualitative label: active

Molecule: O=C(N/N=C(\c1ccccc1)c1cccnc1)c1cccc(F)c1
Qualitative label: active

Molecule: Cc1cccnc1Nc1nc(-c2ccccn2)cs1
Qualitative label: active

Molecule: C=CS(=O)(=O)c1c2cc(OC)ccc2nc2ccc(OC)cc12
Qualitative label: inactive

Molecule: C=C1CC2(OC1=O)c1ccccc1CCc1ccccc12
Qualitative label: inactive

Molecule: Cc1ccc(-c2oc3ccccc3c(=O)c2O)cc1
Qualitative label: active

Molecule: COc1ccccc1C(=O)NNC(=S)NC(=O)c1cccs1
Qualitative label: inactive

Molecule: C/C(=N\NC(=O)c1ccc(F)cc1)c1ccccn1
Qualitative label: active

Molecule: O=C(Nc1nccs1)c1sc2cc(Cl)ccc2c1Cl
Qualitative label: inactive

Molecule: O=[N+]([O-])c1cc2oc3c(c2c(C=NCc2ccccc2)c1O)CCCC3
Qualitative label: inactive

Molecule: N#CC(C#N)=C1C=CC=CN1/C(=C\c1ccco1)C(=O)c1ccc(Cl)cc1
Qualitative label: inactive

Molecule: CCC(=O)OCCNc1cc(Sc2nc3ccccc3[nH]2)c2nonc2c1[N+](=O)[O-]
Qualitative label: active

Molecule: COc1ccc(NC(=O)/C(Cl)=C(/Cl)S(=O)Cc2ccc(Cl)cc2)cn1 (centres undefined)
Qualitative label: inactive

Molecule: Cc1cccc(C(=O)Nc2ccc(C(=O)/C=C/c3ccncc3)cc2)c1
Qualitative label: inactive

Molecule: COc1ccc(C)c(-n2c(=O)n(Cc3ccccc3)c(=O)c3[nH]cnc32)c1
Qualitative label: inactive

Molecule: COc1ccc(NC(=O)/C(Cl)=C(/Cl)S(=O)(=O)Cc2ccc(C)cc2)cn1
Qualitative label: active

Molecule: CCCC(=O)OCCNc1cc(Sc2nccn2C)c2nonc2c1[N+](=O)[O-]
Qualitative label: active

Molecule: CCS(=O)(=O)c1ncc(Cl)c(C(=O)Nc2ccc(S(=O)(=O)N(C)c3ccccc3)cc2)n1
Qualitative label: active

Molecule: O=C(c1nnsc1S(=O)c1ccc(Cl)cc1)N1CCOCC1 (centres undefined)
Qualitative label: inactive

Molecule: CC(=O)OC1C2(CC3N4C(=O)C5(CO)SSC4(CC31O)C(=O)N5C)OC(C)C(C)(C)C2=O (centres undefined)
Qualitative label: active

Molecule: C=C(CN(C)C)C(=O)c1ccc(OC2OC(COC(C)=O)C(OC(C)=O)C(OC(C)=O)C2OC(C)=O)cc1 (centres undefined)
Qualitative label: inactive

Molecule: COc1ccc(CN2C(=O)C(Cc3ccccc3)Nc3ncnc(N4CCN(c5ccccc5)CC4)c32)cc1 (centres undefined)
Qualitative label: active

Molecule: COc1cc2c(cc1OC)C1(CCCC1)CNC2c1cccc([N+](=O)[O-])c1 (centres undefined)
Qualitative label: inactive

Molecule: CN(c1ccccc1)S(=O)(=O)c1ccc(NC(=O)c2nc(S(C)(=O)=O)ncc2Cl)cc1
Qualitative label: active

Molecule: Cc1cc(C)c2c(=O)n(CC(=O)Nc3cccc(Cl)c3C)sc2n1
Qualitative label: active
